- Subject Of Test: RORγt (RORγ-LBD chimeric receptor) (Homo sapiens, UniProt P51449)
- Construct: host or cells: HEK293T
- Sequence (P51449 269-508 limits assumed, change not shown): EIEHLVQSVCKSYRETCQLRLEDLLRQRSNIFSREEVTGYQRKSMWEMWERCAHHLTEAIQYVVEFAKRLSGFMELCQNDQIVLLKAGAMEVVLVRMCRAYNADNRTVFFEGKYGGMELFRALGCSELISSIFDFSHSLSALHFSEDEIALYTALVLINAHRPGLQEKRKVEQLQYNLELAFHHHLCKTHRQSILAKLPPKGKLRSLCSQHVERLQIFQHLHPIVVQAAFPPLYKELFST
- Method Notes: Luciferase reporter gene assay of RORγt agonistic activity in HEK293T cells
- Type: cell-based
- Set-up: dose or concentration left out as unconfirmed
- Test Conditions: HEK-293T
Endpoint: Emax (%)

>>> endpoint_value("COCC(C(=O)Nc1ccc(-c2ccc(S(=O)(=O)C3CC3)cc2)c(C(F)(F)F)c1)c1ccc(S(C)(=O)=O)cc1 (single isomer, unassigned) [Example 43]")
64.1

1. CCS(=O)(=O)c1ccc(-c2c(Cl)cc(NC(=O)C(COC)c3ccc(S(C)(=O)=O)cc3)cc2Cl)cc1 (stereo not drawn)
2. CCS(=O)(=O)c1ccc(-c2c(Cl)cc(NC(=O)Cc3ccc(S(C)(=O)=O)cn3)cc2Cl)cc1
So which one has the bigger Emax here, 1 or 2 ? # reply format: chosen label 1

###

- Method Notes: Pharmacokinetic (PK) assay in mice
- Assay type: in vivo
- Test Conditions: mouse, plasma; Po 5 mg/kg, CD-1 mice
Endpoint: half-life (h)

>>> endpoint_value("COCC(C(=O)Nc1cc(Cl)c(-c2ccc(S(=O)(=O)C3CC3)cc2)c(Cl)c1)c1ccc(S(C)(=O)=O)cc1 (stereo not drawn)")
6.95

P. CC(C)(C[C@H]1CN(S(=O)(=O)c2cccc(C(F)(F)F)c2)c2cc(-c3cc(F)cc(OC(F)F)c3)ccc2O1)C(=O)O [LYC-55716, reference compound]
Q. COCC(C(=O)Nc1ccc(-c2ccc(S(=O)(=O)C3CC3)cc2)c(C(F)(F)F)c1)c1ccc(S(C)(=O)=O)cc1 (single isomer, unassigned)
So which one has the bigger half-life here, P or Q ? # reply format: chosen label P
(P: 5.35 h, Q: 3.51 h)

###

- Method Notes: Pharmacokinetic (PK) assay in mice
- Assay type: in vivo
- Test Conditions: mouse, plasma; Po 5 mg/kg, CD-1 mice
Endpoint: AUC(0-t) (ng·h/mL)

The cases that follow already have their AUC(0-t) on record.
>>> endpoint_value("CCS(=O)(=O)c1ccc(C(COC)C(=O)Nc2cc(Cl)c(-c3ccc(S(=O)(=O)C4CC4)cc3)c(Cl)c2)cc1 (single isomer, unassigned) [Example 41]")
6380
>>> endpoint_value("CC(C)(C[C@H]1CN(S(=O)(=O)c2cccc(C(F)(F)F)c2)c2cc(-c3cc(F)cc(OC(F)F)c3)ccc2O1)C(=O)O [LYC-55716, reference compound]")
269
>>> endpoint_value("CCS(=O)(=O)c1ccc(CC(=O)Nc2cc(Cl)c(-c3ccc(S(=O)(=O)C4CC4)cc3)c(Cl)c2)nc1 [Example 21]")
5630

A. COCC(C(=O)Nc1cc(Cl)c(-c2ccc(S(=O)(=O)C3CC3)cc2)c(Cl)c1)c1ccc(S(C)(=O)=O)cc1 (stereo not drawn) [Example 20]
B. CS(=O)(=O)c1ccc(CC(=O)Nc2cc(Cl)c(-c3ccc(S(=O)(=O)C4CC4)cc3)c(Cl)c2)cc1 [Example 11]
Identify the item whose AUC(0-t) is the smaller number: A or B # reply format: chosen label A

###

- Method Notes: Metabolic stability in human liver microsomes
- Format: in vitro ADME
- Description: According to standard methods of in vitro metabolic stability studies in the art, eg., the methods described in Kerns, Edward H. and Di Li (2008). Drug-like Properties: Concepts, Structure Design and Methods: from ADME to Toxicity Optimization. […] Sample treatment (n=3): each appropriate sample was added, vortexed and centrifuged at high speed. The supernatants were collected, and the substrate was detected by HPLC-MS/MS. […]
Endpoint: half-life (h)

>>> endpoint_value("CCS(=O)(=O)c1ccc(C(COC)C(=O)Nc2cc(Cl)c(-c3ccc(S(=O)(=O)C4CC4)cc3)c(Cl)c2)cc1 (single isomer, unassigned) [Example 40]")
2.4
>>> endpoint_value("CS(=O)(=O)c1ccc(-c2c(Cl)cc(NC(=O)Cc3ccc(S(=O)(=O)CC4CC4)cc3)cc2Cl)cc1 [Example 17]")
0.055
>>> endpoint_value("COCC(C(=O)Nc1ccc(-c2ccc(S(=O)(=O)C3CC3)cc2)c(C(F)(F)F)c1)c1ccc(S(C)(=O)=O)cc1 (single isomer, unassigned) [Example 43]")
1.68
>>> endpoint_value("CCS(=O)(=O)c1ccc(C(COC)C(=O)Nc2cc(Cl)c(-c3ccc(S(C)(=O)=O)cc3)c(Cl)c2)cc1 (stereo not drawn) [Example 15]")
1.3
>>> endpoint_value("CS(=O)(=O)c1ccc(C(CO)C(=O)Nc2cc(Cl)c(-c3ccc(S(=O)(=O)C4CC4)cc3)c(Cl)c2)cc1 (single isomer, unassigned) [Example 36]")
1.69
